Tested on: Mycobacterium tuberculosis
Test: Activity of Mycobacterium tuberculosis CYP124A1 assessed as relative apparent turnover number at 50 uM incubated for 1 hr at 25 degC by GC-MS method relative to cholesterol

| compound | Activity / % |
| --- | --- |
| C=C(C)CCC[C@@H](C)[C@H]1CC[C@H]2[C@@H]3CC=C4C[C@@H](O)CC[C@]4(C)[C@H]3CC[C@]12C | 26.2 |
| CC(Br)CCC[C@@H](C)[C@H]1CC[C@H]2[C@@H]3CC=C4C[C@@H](O)CC[C@]4(C)[C@H]3CC[C@]12C (mixture of isomers) | 67.3 |
| CC(C)=CCC[C@@H](C)[C@H]1CC[C@H]2[C@@H]3CC=C4C[C@@H](O)CC[C@]4(C)[C@H]3CC[C@]12C | 91.2 |
| CC=C(C)CCC[C@@H](C)[C@H]1CC[C@H]2[C@@H]3CC=C4C[C@@H](O)CC[C@]4(C)[C@H]3CC[C@]12C (mixture of isomers) | 22.4 |
| CCCCC[C@@H](C)[C@H]1CC[C@H]2[C@@H]3CC=C4C[C@@H](O)CC[C@]4(C)[C@H]3CC[C@]12C | 48.6 |
| CC(Cl)CCC[C@@H](C)[C@H]1CC[C@H]2[C@@H]3CC=C4C[C@@H](O)CC[C@]4(C)[C@H]3CC[C@]12C (mixture of isomers) | 29.8 |
| CC(C)CCC[C@@H](C)[C@H]1CC[C@H]2[C@@H]3CC[C@@H]4C[C@@H](O)CC[C@]4(C)[C@H]3CC[C@]12C | 68.4 |
| C=CCCC[C@@H](C)[C@H]1CC[C@H]2[C@@H]3CC=C4C[C@@H](O)CC[C@]4(C)[C@H]3CC[C@]12C | 1.9 |

* * *

Test: Binding affinity to Mycobacterium tuberculosis CYP142A1 by UV-visible spectrophotometry
Conditions: read-out: Kd(app)
parameter_measured: Kd (µM)

| compound | value_measured |
| --- | --- |
| CC=C(C)CCC[C@@H](C)[C@H]1CC[C@H]2[C@@H]3CC=C4C[C@@H](O)CC[C@]4(C)[C@H]3CC[C@]12C (mixture of isomers) | 0.16 |

* * *

A short record of Kd observed with Steroid C26-monooxygenase (Mycobacterium tuberculosis) follows.
Sequence (P9WPP1 whole entry): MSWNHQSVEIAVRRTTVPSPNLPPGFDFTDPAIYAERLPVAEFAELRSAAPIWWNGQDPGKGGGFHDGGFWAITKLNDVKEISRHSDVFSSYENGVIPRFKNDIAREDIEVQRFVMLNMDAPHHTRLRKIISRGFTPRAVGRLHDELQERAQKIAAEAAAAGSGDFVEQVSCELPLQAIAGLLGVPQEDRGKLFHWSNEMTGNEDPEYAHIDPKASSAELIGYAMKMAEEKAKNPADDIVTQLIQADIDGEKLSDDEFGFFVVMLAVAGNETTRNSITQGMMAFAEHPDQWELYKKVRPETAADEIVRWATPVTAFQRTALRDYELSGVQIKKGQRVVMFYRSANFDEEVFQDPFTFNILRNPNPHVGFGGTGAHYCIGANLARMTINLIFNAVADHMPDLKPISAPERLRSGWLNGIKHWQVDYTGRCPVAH

| compound | test_system | result_units | Kd |
| --- | --- | --- | --- |
| CC=C(C)CCC[C@@H](C)[C@H]1CC[C@H]2[C@@H]3CC=C4C[C@@H](O)CC[C@]4(C)[C@H]3CC[C@]12C (mixture of isomers) | Steroid C26-monooxygenase (Mycobacterium tuberculosis) | nM | 450 |
| C=C(C)CCC[C@@H](C)[C@H]1CC[C@H]2[C@@H]3CC=C4C[C@@H](O)CC[C@]4(C)[C@H]3CC[C@]12C | Steroid C26-monooxygenase (Mycobacterium tuberculosis) | nM | 250 |

* * *

Known log10 of Kcat(app) of a selection of molecules
System: Mycobacterium tuberculosis
Assay: Activity of Mycobacterium tuberculosis CYP124A1 assessed as apparent turnover number at 50 uM incubated for 1 hr at 25 degC by GC-MS method
parameter_measured: log10 of Kcat(app) (log10 of the value in s⁻¹)

| molecule | log10 of Kcat(app) |
| --- | --- |
| CC(C)CCC[C@@H](C)[C@H]1CC[C@H]2[C@@H]3CC[C@@H]4C[C@@H](O)CC[C@]4(C)[C@H]3CC[C@]12C [COPROSTANOL] | -1.76 |
| CC(C)=CCC[C@@H](C)[C@H]1CC[C@H]2[C@@H]3CC=C4C[C@@H](O)CC[C@]4(C)[C@H]3CC[C@]12C [DESMOSTEROL] | -1.64 |
| CCCCC[C@@H](C)[C@H]1CC[C@H]2[C@@H]3CC=C4C[C@@H](O)CC[C@]4(C)[C@H]3CC[C@]12C | -1.93 |
| CC(C)CCC[C@@H](C)[C@H]1CC[C@H]2[C@@H]3CC=C4C[C@@H](O)CC[C@]4(C)[C@H]3CC[C@]12C [CHOLESTEROL] | -1.60 |
| CC(Br)CCC[C@@H](C)[C@H]1CC[C@H]2[C@@H]3CC=C4C[C@@H](O)CC[C@]4(C)[C@H]3CC[C@]12C (mixture of isomers) | -1.77 |
| CC(Cl)CCC[C@@H](C)[C@H]1CC[C@H]2[C@@H]3CC=C4C[C@@H](O)CC[C@]4(C)[C@H]3CC[C@]12C (mixture of isomers) | -2.12 |
| C=CCCC[C@@H](C)[C@H]1CC[C@H]2[C@@H]3CC=C4C[C@@H](O)CC[C@]4(C)[C@H]3CC[C@]12C | -3.30 |
| C=C(C)CCC[C@@H](C)[C@H]1CC[C@H]2[C@@H]3CC=C4C[C@@H](O)CC[C@]4(C)[C@H]3CC[C@]12C | -2.18 |
| CC=C(C)CCC[C@@H](C)[C@H]1CC[C@H]2[C@@H]3CC=C4C[C@@H](O)CC[C@]4(C)[C@H]3CC[C@]12C (mixture of isomers) | -2.30 |

* * *

Tested on: Mycobacterium tuberculosis
Assay: Binding affinity to Mycobacterium tuberculosis CYP124A1 assessed as type 1 binding mode at 0.05 to 0.2 uM by UV-visible spectrophotometry
Calls of active or inactive are those of the source. No cut-off for these calls is given here.
parameter_measured: Activity

| compound | parameter_measured | value_measured |
| --- | --- | --- |
| CCCCC[C@@H](C)[C@H]1CC[C@H]2[C@@H]3CC=C4C[C@@H](O)CC[C@]4(C)[C@H]3CC[C@]12C | Activity | Active |
| CC(C)CCC[C@@H](C)[C@H]1CC[C@H]2[C@@H]3CC[C@@H]4C[C@@H](O)CC[C@]4(C)[C@H]3CC[C@]12C | Activity | Active |
| C=C(C)CCC[C@@H](C)[C@H]1CC[C@H]2[C@@H]3CC=C4C[C@@H](O)CC[C@]4(C)[C@H]3CC[C@]12C | Activity | Active |
| CSCCC[C@@H](C)[C@H]1CC[C@H]2[C@@H]3CC=C4C[C@@H](O)CC[C@]4(C)[C@H]3CC[C@]12C | Activity | Active |
| CC=C(C)CCC[C@@H](C)[C@H]1CC[C@H]2[C@@H]3CC=C4C[C@@H](O)CC[C@]4(C)[C@H]3CC[C@]12C (mixture of isomers) | Activity | Active |
| C=CCCC[C@@H](C)[C@H]1CC[C@H]2[C@@H]3CC=C4C[C@@H](O)CC[C@]4(C)[C@H]3CC[C@]12C | Activity | Active |
| CCC(C)CCC[C@@H](C)[C@H]1CC[C@H]2[C@@H]3CC=C4C[C@@H](O)CC[C@]4(C)[C@H]3CC[C@]12C (mixture of isomers) | Activity | Active |
| CC(Br)CCC[C@@H](C)[C@H]1CC[C@H]2[C@@H]3CC=C4C[C@@H](O)CC[C@]4(C)[C@H]3CC[C@]12C (mixture of isomers) | Activity | Active |

* * *

Tested on: Mycobacterium tuberculosis
Assay: Activity of Mycobacterium tuberculosis CYP142A1 assessed as relative apparent turnover number at 50 uM incubated for 1 hr at 25 degC by GC-MS method relative to cholesterol

| compound | Activity |
| --- | --- |
| CC(Br)CCC[C@@H](C)[C@H]1CC[C@H]2[C@@H]3CC=C4C[C@@H](O)CC[C@]4(C)[C@H]3CC[C@]12C (mixture of isomers) | 107% |
| C=C(C)CCC[C@@H](C)[C@H]1CC[C@H]2[C@@H]3CC=C4C[C@@H](O)CC[C@]4(C)[C@H]3CC[C@]12C | 6.7% |
| CC(C)=CCC[C@@H](C)[C@H]1CC[C@H]2[C@@H]3CC=C4C[C@@H](O)CC[C@]4(C)[C@H]3CC[C@]12C | 41.4% |
| CC(Cl)CCC[C@@H](C)[C@H]1CC[C@H]2[C@@H]3CC=C4C[C@@H](O)CC[C@]4(C)[C@H]3CC[C@]12C (mixture of isomers) | 53.7% |
| C=CCCC[C@@H](C)[C@H]1CC[C@H]2[C@@H]3CC=C4C[C@@H](O)CC[C@]4(C)[C@H]3CC[C@]12C | 6.7% |
| CCCCC[C@@H](C)[C@H]1CC[C@H]2[C@@H]3CC=C4C[C@@H](O)CC[C@]4(C)[C@H]3CC[C@]12C | 11.7% |
| CC(C)=CCC[C@@H](C)[C@H]1CC[C@@]2(C)C3=C(CC[C@]12C)[C@@]1(C)CC[C@H](O)C(C)(C)[C@@H]1CC3 | 132% |
| CCC(C)CCC[C@@H](C)[C@H]1CC[C@H]2[C@@H]3CC=C4C[C@@H](O)CC[C@]4(C)[C@H]3CC[C@]12C (mixture of isomers) | 58.7% |
| CC(C)CCC[C@@H](C)[C@H]1CC[C@H]2[C@@H]3CC[C@@H]4C[C@@H](O)CC[C@]4(C)[C@H]3CC[C@]12C | 43.1% |

Data origin: ChEMBL document CHEMBL2046332
